Target: MBP-PhoB (Synechococcus sp. WH7803)
Sequence: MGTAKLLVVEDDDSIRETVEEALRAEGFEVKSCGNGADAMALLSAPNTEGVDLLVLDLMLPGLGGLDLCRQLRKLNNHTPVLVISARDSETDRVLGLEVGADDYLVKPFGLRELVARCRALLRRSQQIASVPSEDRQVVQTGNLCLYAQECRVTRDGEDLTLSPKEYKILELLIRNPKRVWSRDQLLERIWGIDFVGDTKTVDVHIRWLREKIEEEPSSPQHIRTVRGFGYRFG
Assay: EMSA
Conditions: 10 mM Tris-HCl pH 8, 50 mM KCl, 2 mM MgCl2, 5% glycerol, 0.05 mg/mL BSA, 1 mM DTT, 3 mM spermidine (described as 2x binding buffer); 25 ng DNA, 30 min at 23 C …
Value Type: binding

INSERT INTO assay_data (residue_sequence, value_type, endpoint_value) VALUES
  ('TACACTATCTAGGAAACTCATAAATTACCTCTTAGAAAAAACTTAATAGAGAAACTTTTTTCTCATAATCCCAACCAATACATTCTAGCACATTTTTCAATGGTTCCAAGAAAGACTTCTCAAACTGAGTCTGATAGTCAATATACTTATCAACGTTAAACTCCTTGGGAATGTCACTGAAGAATGATATGCAGTTCTCCTGAATTGGGTTTGGTGTTCTCAAG (double strand) [S-PM2d134 (uvsX) promoter]', 'binding', 'binds'),
  ('TACACTATCTAGGAAACTCATAAATTACCTCTTAGAAAAAACTTAATAGAGAAACTTTTTTCTCATAATCCCAACCAATACATTCTAGCACATTTTTCAATGGTTCCAAGAAAGACTTCTCAAACTGAGTCTGATAGTCAATATACTTATCAACGTTAAACTCCTTGGGAATGTCACTGAAGAATGATATGCAGTTCTCCTGAATTGGGTTTGGTGTTCTCAAG (double strand) [FAM-S-PM2d134 promoter]', 'binding', 'binds'),
  ('AGGGGTACTGGATCATTTCTGAAGTTGAAGAAATTGATGGTTTGGAGTTTGGGGACCCCGATTGTATGTTAAAATATCCATATGCAGTTGAACAAGGGGTCCTCGTCCCATGGCCACCATATTCAACAGAAAAAAAGATCATTGTAAGATCTTCCGAGATCAGTGTCATGGTTGATCCAGATGCTCCTCGCCTTGCAGATTATGCCAAATTGAAATCAGAAGAGACCTAATGAAATTTTACACCAGCGTACAACAAGCAGGTA (double strand) [S-PM2d133 (gp43) promoter (full-length fragment)]', 'binding', 'binds');

====

Target: MBP-PhoB (Synechococcus sp. WH7803)
Sequence: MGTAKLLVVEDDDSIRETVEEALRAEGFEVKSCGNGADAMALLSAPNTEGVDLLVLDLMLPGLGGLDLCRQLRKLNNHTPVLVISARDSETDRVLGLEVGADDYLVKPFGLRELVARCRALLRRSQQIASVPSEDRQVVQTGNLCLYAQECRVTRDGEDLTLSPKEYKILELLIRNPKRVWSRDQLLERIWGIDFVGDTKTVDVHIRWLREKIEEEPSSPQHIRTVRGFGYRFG
Assay: EMSA
Details: 10 mM Tris-HCl pH 8, 50 mM KCl, 2 mM MgCl2, 5% glycerol, 0.05 mg/mL BSA, 1 mM DTT, 3 mM spermidine (described as 2x binding buffer); 25 ng DNA, 30 min at 23 C …
Value Type: binding

INSERT INTO results (residue_sequence, target_or_system, endpoint_value) VALUES
  ('AGTTCTTCCCGAGGATTTGTTCGATGAATTCTGAACCAGTAACATCACTTTATCTCTCATTTAACCAAATCAAGTATATTCTTGATGTTATGTGGGGAACCGATCCAGTTACAGCAAAACTATTTGCAAACTCTCACGGAGTTGATGATACCGAACTGGAACGTTATCTTTCCTCTCGTTTAACTGATGGTGATATAACTAAAGTAGATTATACAATTCTTGGAGAAAAATGATTAATGTCAAACAAGAAGATAACGGCAGCTTCAC (double strand) [S-PM2d004 promoter (full-length fragment)]', 'MBP-PhoB (Synechococcus sp. WH7803)', 'binds'),
  ('AGTTCTTCCCGAGGATTTGTTCGATGAATTCTGAACCAGTAACATCACTTTATCTCTCATTTAACCAAATCAAGTATATTCTTGATGTTATGTGGGGAACCGATCCAGTTACAGCAAAACTATTTGCAAACTCTCACGGAGTTGATGATACCGAACTGGAACGTTATCTTTCCTCTCGTTTAACTGATGGTGATATAACTAAAGTAGATTATACAATTCTTGGAGAAAAATGATTAATGTCAAACAAGAAGATAACGGCAGCTTCAC (double strand) [FAM-S-PM2d004 promoter]', 'MBP-PhoB (Synechococcus sp. WH7803)', 'binds');
